// data source = patent US20010039287A1

Entries annotated with measured IC50
Molecular target: recombinant human MMP-1 (Homo sapiens, UniProt P03956)
Construct: made in house; host or cells: transfected HT-1080 cells (provided by Dr. Harold Welgus, Washington University)
Test: biochemical
Details: Inhibition Table B; read-out: MMP-1 IC50
Structures can show the parent of a compound that is named as a salt.

molecule	displayUnit	censoringOperator	IC50
Cc1ccc(Oc2ccc(S(=O)(=O)C3(C(=O)NO)CCOCC3)cc2)cn1 [Example 97, Monohydrochloride]	µM	=	4
O=C(NO)C1(S(=O)(=O)c2ccc(F)cc2)CCOCC1	µM	>	10
C[C@@H]1CN(C(=O)C2CCCN(c3ccc(S(=O)(=O)C4(C(=O)NO)CCOCC4)cc3)C2)C[C@H](C)O1 (stereo partly shown)	µM	=	10
Cc1cc(Oc2ccc(S(=O)(=O)C3(C(=O)NO)CCNCC3)cc2)ccc1F [Example 83, Monohydrochloride]	µM	=	8

----------
Biological target: recombinant human MMP-1 (Homo sapiens)
Construct: made in house; host or cells: transfected HT-1080 cells (provided by Dr. Harold Welgus, Washington University)
Sequence (P03956 100-469): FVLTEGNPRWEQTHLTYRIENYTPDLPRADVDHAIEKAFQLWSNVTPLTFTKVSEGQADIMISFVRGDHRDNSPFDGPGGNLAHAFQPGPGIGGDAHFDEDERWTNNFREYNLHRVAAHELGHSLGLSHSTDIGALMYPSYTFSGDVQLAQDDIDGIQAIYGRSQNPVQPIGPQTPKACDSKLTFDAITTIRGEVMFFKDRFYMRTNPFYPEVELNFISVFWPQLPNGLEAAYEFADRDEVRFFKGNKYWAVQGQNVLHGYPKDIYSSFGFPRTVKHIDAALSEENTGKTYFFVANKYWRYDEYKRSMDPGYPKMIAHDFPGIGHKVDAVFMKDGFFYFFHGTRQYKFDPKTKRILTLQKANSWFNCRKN
Test: biochemical
Conditions: Inhibition Table B; read-out: MMP-1 IC50
pIC50: −log10 of the molar value. Counter-ions that a name gives are not always drawn.
Entries annotated with measured pIC50

compound	censoringOperator	pIC50
O=C(NO)C1(S(=O)(=O)c2ccc(OC3CCNCC3)cc2)CCOCC1 [Example 67, Monohydrochloride]	=	5.80
O=C(NO)C1(S(=O)(=O)c2ccc(Sc3ccccc3)cc2)CCOCC1 [Example 95]	<	5.00
CC(C)NC(=O)N1CCC(C(=O)NO)(S(=O)(=O)c2ccc(Oc3ccc(Cl)cc3)cc2)CC1 [Example 90]	=	5.92
O=C(NO)C1(S(=O)(=O)c2ccc(Oc3ccc(OCc4ccccc4)cc3)cc2)CCOCC1 [Example 72]	=	5.68

----------
Biological target: recombinant human MMP-13 (Homo sapiens)
Test: biochemical
Details: Inhibition Table B; read-out: MMP-13 IC50
pIC50: −log10 of the molar value. Structures can show the parent of a compound that is named as a salt.
Quick rule for you: pIC50 at 9 or higher means Condition met, lower means Condition not met.

compound	classLabel
NCCc1ccc(Oc2ccc(S(=O)(=O)C3(C(=O)NO)CCS(=O)(=O)CC3)cc2)cc1 [Example 54, Monohydrochloride]	Condition not met
CC(=O)N1CCC(Oc2ccc(S(=O)(=O)C3(C(=O)NO)CCOCC3)cc2)CC1 [Example 107]	Condition not met
O=C(NO)C1(S(=O)(=O)c2ccc(Oc3ccc(Cl)cc3)cc2)CCN(CCN2CCOCC2)CC1 [Example 89, Dihydrochloride]	Condition met
O=C(NO)C1(S(=O)(=O)c2ccc(Oc3ccc(Cl)c(F)c3)cc2)CCOCC1 [Example 122]	Condition met
O=Cc1ccc(-c2ccc(S(=O)(=O)C3(C(=O)NO)CCOCC3)cc2)cc1 [Example 231]	Condition met
CC(=O)N1CCC(C(=O)NO)(S(=O)(=O)c2ccc(Oc3ccc4c(c3)OCO4)cc2)CC1 [Example 37, Monohydrochloride]	Condition met
O=C(C1CCc2ccccc2C1)N1CCN(c2ccc(S(=O)(=O)C3(C(=O)NO)CCOCC3)cc2)CC1 (centres unmarked) [Example 201]	Condition not met
O=C(C1CCCCC1)N1CCN(c2ccc(S(=O)(=O)C3(C(=O)NO)CCOCC3)cc2)CC1 [Example 200]	Condition not met
C#CCN1CCC(C(=O)NO)(S(=O)(=O)c2ccc(Oc3ccc(Cl)cc3)cc2)CC1 [Example 85, Monohydrochloride]	Condition met
C#CCN1CCC(C(=O)NO)(S(=O)(=O)c2ccc(Oc3cc(OC)cc(OC)c3)cc2)CC1 [Example 39, Monohydrochloride]	Condition not met
O=C(CN1CCCC1)N1CCC(C(=O)NO)(S(=O)(=O)c2ccc(Oc3ccccc3)cc2)CC1 [Example 31, Monohydrochloride]	Condition met
C#CCN1CCC(C(=O)NO)(S(=O)(=O)c2ccc(Oc3cccc(C)c3)cc2)CC1 [Example 41, Monohydrochloride]	Condition met
